# target_of_assay: human Cereblon WT GST-tagged protein (Homo sapiens, UniProt Q96SW2)
# Construct: purchased CISBIO 64BDCRBNPEH
# Sequence (Q96SW2 whole entry): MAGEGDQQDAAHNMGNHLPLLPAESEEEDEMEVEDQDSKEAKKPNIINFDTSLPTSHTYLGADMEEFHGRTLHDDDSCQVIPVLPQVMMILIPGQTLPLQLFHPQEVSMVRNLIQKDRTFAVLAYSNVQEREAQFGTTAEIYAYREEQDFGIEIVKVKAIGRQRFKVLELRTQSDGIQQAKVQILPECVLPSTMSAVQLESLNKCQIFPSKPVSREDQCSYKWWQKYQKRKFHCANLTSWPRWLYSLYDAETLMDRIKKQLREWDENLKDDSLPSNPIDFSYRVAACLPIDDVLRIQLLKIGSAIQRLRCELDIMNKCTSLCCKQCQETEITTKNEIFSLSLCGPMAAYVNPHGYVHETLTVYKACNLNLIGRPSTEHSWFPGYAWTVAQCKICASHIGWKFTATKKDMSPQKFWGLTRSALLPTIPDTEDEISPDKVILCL
# assay_overview: CRBN-binding affinity, HTRF (CEREBLON BINDING kit)
# condition: read-out: Inhibition Rate at 2 µM (%)
# Protocol: The CEREBLON BINDING kits (specification: 10,000 tests; product number: Catalog # 64BDCRBNPEH; CISBIO company) was used to determine the CRBN binding ability of the compounds to be tested through a HTRF method (homogeneous time-resolved fluorescence). The specific methods are as follows: • 1. […] Specifically, diluent #9 (1X) solution was used as the diluent, and multiple concentration gradients were set. […] Then, 2.5 µL of human Cereblon WT GST-tagged protein solution was added to each well. […]

compound	target_of_assay	inhibition at 2 µM
O=C1CCC(N2Cc3cc(CN4CCN(c5cccc(F)n5)CC4)ccc3C2=S)C(=O)N1 (centres unmarked) [GT-09221]	human Cereblon WT GST-tagged protein (Homo sapiens, UniProt Q96SW2)	80 to 100%
O=C1CCC(N2Cc3cc(CN4CCN(c5ccncc5)CC4)ccc3C2=S)C(=O)N1 (centres unmarked) [GT-09233]	human Cereblon WT GST-tagged protein (Homo sapiens, UniProt Q96SW2)	80 to 100%
O=C1CCC(N2Cc3cc(CN4CCN(c5c(Cl)cncc5Br)CC4)ccc3C2=S)C(=O)N1 (centres unmarked) [GT-09264]	human Cereblon WT GST-tagged protein (Homo sapiens, UniProt Q96SW2)	80 to 100%
O=C1CCC(N2Cc3cc(CN4CCN(c5nc(N6CCOCC6)nc6c5SCC6)CC4)ccc3C2=S)C(=O)N1 (centres unmarked) [GT-09329]	human Cereblon WT GST-tagged protein (Homo sapiens, UniProt Q96SW2)	80 to 100%
Cc1nc(C2=CCN(Cc3cccc4c3CN(C3CCC(=O)NC3=O)C4=S)CC2)c2ccsc2n1 (centres unmarked) [GT-08959]	human Cereblon WT GST-tagged protein (Homo sapiens, UniProt Q96SW2)	80 to 100%
COc1ccccc1N1CCN(Cc2ccc3c(c2)CN(C2CCC(=O)NC2=O)C3=S)CC1 (centres unmarked) [GT-08236]	human Cereblon WT GST-tagged protein (Homo sapiens, UniProt Q96SW2)	80 to 100%
Cc1nc(C2CCN(Cc3ccc4c(c3)CN(C3CCC(=O)NC3=O)C4=S)CC2)c2c3c(sc2n1)CCCC3 (centres unmarked) [GT-09310]	human Cereblon WT GST-tagged protein (Homo sapiens, UniProt Q96SW2)	80 to 100%
O=C1CCC(N2Cc3cc(CN4CCCN(C(c5ccccc5)c5ccccc5)CC4)ccc3C2=S)C(=O)N1 (centres unmarked) [GT-07848]	human Cereblon WT GST-tagged protein (Homo sapiens, UniProt Q96SW2)	80 to 100%
Cc1cc(C2CCN(Cc3cccc4c3CN(C3CCC(=O)NC3=O)C4=S)CC2)cs1 (centres unmarked) [GT-08316]	human Cereblon WT GST-tagged protein (Homo sapiens, UniProt Q96SW2)	60 to 80%
O=C1CCC(N2Cc3c(CN4CCN(c5ncc(Cl)cc5Cl)CC4)cccc3C2=S)C(=O)N1 (centres unmarked) [GT-08703]	human Cereblon WT GST-tagged protein (Homo sapiens, UniProt Q96SW2)	60 to 80%
CC1(C)CCC(CN2C3CCC2CN(Cc2cccc4c2CN(C2CCC(=O)NC2=O)C4=S)C3)=C(c2ccc(Cl)cc2)C1 (centres unmarked) [GT-08291]	human Cereblon WT GST-tagged protein (Homo sapiens, UniProt Q96SW2)	60 to 80%
Cc1cc(N2CCN(Cc3cccc4c3CN(C3CCC(=O)NC3=O)C4=S)CC2)cc(C)n1 (centres unmarked) [GT-08806]	human Cereblon WT GST-tagged protein (Homo sapiens, UniProt Q96SW2)	80 to 100%
CC1(C)CC(c2ccc(Cl)cc2)=C(CN2CCN(Cc3ccc4c(c3)CN(C3CCC(=O)NC3=O)C4=S)CC2)CO1 (centres unmarked) [GT-08167]	human Cereblon WT GST-tagged protein (Homo sapiens, UniProt Q96SW2)	80 to 100%
O=C1CCC(N2Cc3c(CN4CCN(c5cccc(F)n5)CC4)cccc3C2=S)C(=O)N1 (centres unmarked) [GT-08698]	human Cereblon WT GST-tagged protein (Homo sapiens, UniProt Q96SW2)	80 to 100%
Cc1ccc(N2CCN(Cc3ccc4c(c3)CN(C3CCC(=O)NC3=O)C4=S)CC2)cc1 (centres unmarked) [GT-08603]	human Cereblon WT GST-tagged protein (Homo sapiens, UniProt Q96SW2)	80 to 100%
O=C1CCC(N2Cc3cc(CN4CCC(c5ccccc5)CC4)ccc3C2=S)C(=O)N1 (centres unmarked) [GT-08616]	human Cereblon WT GST-tagged protein (Homo sapiens, UniProt Q96SW2)	80 to 100%
O=C1CCC(N2Cc3c(CN4CCC(c5cccc(F)c5F)CC4)cccc3C2=S)C(=O)N1 (centres unmarked) [GT-08322]	human Cereblon WT GST-tagged protein (Homo sapiens, UniProt Q96SW2)	53 to 60%
O=C1CCC(N2Cc3c(CN4CCN(c5cc(Cl)nnc5Cl)CC4)cccc3C2=S)C(=O)N1 (centres unmarked) [GT-08807]	human Cereblon WT GST-tagged protein (Homo sapiens, UniProt Q96SW2)	80 to 100%
O=C1CCC(N2Cc3c(CN4CCN(c5nccc(Cl)c5F)CC4)cccc3C2=S)C(=O)N1 (centres unmarked) [GT-08803]	human Cereblon WT GST-tagged protein (Homo sapiens, UniProt Q96SW2)	80 to 100%
O=C1CCC(N2Cc3cc(CN4CCC(c5ncnc6sccc56)CC4)ccc3C2=S)C(=O)N1 (centres unmarked) [GT-09304]	human Cereblon WT GST-tagged protein (Homo sapiens, UniProt Q96SW2)	80 to 100%
O=C1CCC(N2Cc3c(CN4CCC(c5ccoc5)CC4)cccc3C2=S)C(=O)N1 (centres unmarked) [GT-08317]	human Cereblon WT GST-tagged protein (Homo sapiens, UniProt Q96SW2)	60 to 80%
O=C1CCC(N2Cc3cc(CN4CCN(c5ccccc5Br)CC4)ccc3C2=S)C(=O)N1 (centres unmarked) [GT-08242]	human Cereblon WT GST-tagged protein (Homo sapiens, UniProt Q96SW2)	80 to 100%
Cc1nc(C2CCN(Cc3cccc4c3CN(C3CCC(=O)NC3=O)C4=S)CC2)c2ccsc2n1 (centres unmarked) [GT-08932]	human Cereblon WT GST-tagged protein (Homo sapiens, UniProt Q96SW2)	80 to 100%
O=C1CCC(N2Cc3cc(CN4CCN(C(c5ccccn5)c5ccccn5)CC4)ccc3C2=S)C(=O)N1 (centres unmarked) [GT-07734]	human Cereblon WT GST-tagged protein (Homo sapiens, UniProt Q96SW2)	80 to 100%
Cc1cccc(N2CCN(Cc3cccc4c3CN(C3CCC(=O)NC3=O)C4=S)CC2)c1 (centres unmarked) [GT-08498]	human Cereblon WT GST-tagged protein (Homo sapiens, UniProt Q96SW2)	60 to 80%
O=C1CCC(N2Cc3cc(CN4C5CCC4CN(C(c4ccccc4)c4ccccc4)C5)ccc3C2=S)C(=O)N1 (centres unmarked) [GT-07850]	human Cereblon WT GST-tagged protein (Homo sapiens, UniProt Q96SW2)	80 to 100%
O=C1CCC(N2Cc3c(CN4CC=C(c5cccc6cnccc56)CC4)cccc3C2=S)C(=O)N1 (centres unmarked) [GT-08634]	human Cereblon WT GST-tagged protein (Homo sapiens, UniProt Q96SW2)	80 to 100%
O=C1CCC(N2Cc3c(CN4CCN(c5ncnc6scc(-c7ccccc7)c56)CC4)cccc3C2=S)C(=O)N1 (centres unmarked) [GT-08920]	human Cereblon WT GST-tagged protein (Homo sapiens, UniProt Q96SW2)	80 to 100%
O=C1CCC(N2Cc3cc(CN4CCC(c5ccnc(Cl)c5Cl)CC4)ccc3C2=S)C(=O)N1 (centres unmarked) [GT-08475]	human Cereblon WT GST-tagged protein (Homo sapiens, UniProt Q96SW2)	80 to 100%
O=C1CCC(N2Cc3c(CN4CCN(c5nc(N6CCOCC6)nc6ccsc56)CC4)cccc3C2=S)C(=O)N1 (centres unmarked) [GT-09032]	human Cereblon WT GST-tagged protein (Homo sapiens, UniProt Q96SW2)	80 to 100%
O=C1CCC(N2Cc3cc(CN4CCN(c5ccnc(Cl)c5Br)CC4)ccc3C2=S)C(=O)N1 (centres unmarked) [GT-09240]	human Cereblon WT GST-tagged protein (Homo sapiens, UniProt Q96SW2)	80 to 100%
O=C1CCC(N2Cc3c(CN4CCN(c5cccnn5)CC4)cccc3C2=S)C(=O)N1 (centres unmarked) [GT-08810]	human Cereblon WT GST-tagged protein (Homo sapiens, UniProt Q96SW2)	80 to 100%

The measured values listed here are drawn from patent EP4745135A1.
